Data provenance is paper PMC7180830.

system: HIV-1 IIIB; assay: Anti-HIV assay against wild-type HIV-1 (IIIB) in MT-4 cells, MTT method; type: cell-based; conditions: Human immunodeficiency virus 1, IIIB, MT4, read-out: EC50 HIV-1 IIIB
pEC50: −log10 of the molar value.
// pEC50 lookup, one value per entry

Compound: Cc1cc(/C=C/C#N)cc(C)c1Nc1ccnc(Nc2ccc(C#N)cc2)n1 [Rilpivirine, rilpivirine, reference compound]
pEC50: 8.80
--
Compound: Cc1cc(C(C#N)c2ccnc(Nc3ccc(C#N)cc3)n2)ccc1C#N (centres unmarked) [Compound A2]
pEC50: 5.93
--
Compound: N#Cc1ccc(Nc2nccc(C(C#N)c3ccc(C#N)cc3C(F)(F)F)n2)cc1 (centres unmarked) [Compound A6]
pEC50: 6.31
--
Compound: Cc1cnc(Nc2ccc(C#N)cc2)nc1C(C#N)c1ccc(C#N)cc1Cl (centres unmarked) [Compound B3]
pEC50: 8.00
--
Compound: COc1cc(C#N)ccc1C(C#N)c1ccnc(Nc2ccc(C#N)cc2)n1 (centres unmarked) [Compound A5]
pEC50: 7.23
--
Compound: N#Cc1ccc(Nc2nccc(C(C#N)c3ccc(C#N)cc3Cl)n2)cc1 (centres unmarked) [Compound A8]
pEC50: 7.20
--
Compound: N#Cc1ccc(Nc2nccc(C(C#N)c3ccc(C#N)cc3Br)n2)cc1 (centres unmarked) [Compound A9]
pEC50: 7.10
--
Compound: Cc1cc(C#N)c(Br)cc1C(C#N)c1ccnc(Nc2ccc(C#N)cc2)n1 (centres unmarked) [Compound A12]
pEC50: 6.62

###

// pEC50 lookup, one value per entry
system: HIV-1 E138K mutant strain; assay: Anti-HIV assay against E138K mutant strain in MT-4 cells; format: cell-based; details: Human immunodeficiency virus 1, MT4, read-out: EC50 E138K
pEC50: −log10 of the molar value.

Compound: Cc1cc(C#N)c(Br)cc1C(C#N)c1ccnc(Nc2ccc(C#N)cc2)n1 (stereo not shown)
Rel: =
pEC50: 5.43

Compound: Cc1cc(/C=C/C#N)cc(C)c1Nc1ccnc(Nc2ccc(C#N)cc2)n1 [Rilpivirine, rilpivirine, reference compound]
Rel: =
pEC50: 8.52

Compound: Cc1cnc(Nc2ccc(C#N)cc2)nc1C(C#N)c1ccc(C#N)cc1Br (stereo not shown)
Rel: =
pEC50: 6.96

Compound: COc1cc(C#N)ccc1C(C#N)c1ccnc(Nc2ccc(C#N)cc2)n1 (stereo not shown)
Rel: =
pEC50: 5.79

Compound: N#Cc1ccc(Nc2nccc(C(C#N)c3ccc(C#N)cc3C(F)(F)F)n2)cc1 (stereo not shown)
Rel: <
pEC50: 5.21

Compound: Cc1cnc(Nc2ccc(C#N)cc2)nc1C(C#N)c1ccc(C#N)cc1 (stereo not shown)
Rel: =
pEC50: 5.31

Compound: Cc1cc(C#N)c(Br)cc1C(C#N)c1nc(Nc2ccc(C#N)cc2)ncc1C (stereo not shown)
Rel: =
pEC50: 6.77

Compound: Cc1cnc(Nc2ccc(C#N)cc2)nc1C(C#N)c1ccc(C#N)cc1F (stereo not shown)
Rel: =
pEC50: 6.01

Compound: N#Cc1ccc(Nc2nccc(C(C#N)c3c(Cl)cc(C#N)cc3Cl)n2)cc1 (stereo not shown)
Rel: =
pEC50: 5.66

Compound: N#Cc1ccc(Nc2nccc(C(C#N)c3ccc(C#N)cc3F)n2)cc1 (stereo not shown)
Rel: <
pEC50: 4.98

Compound: Cc1cnc(Nc2ccc(C#N)cc2)nc1C(C#N)c1ccc(C#N)cc1Cl (stereo not shown)
Rel: =
pEC50: 6.85

Compound: Cc1cnc(Nc2ccc(C#N)cc2)nc1C(C#N)c1ccc(C#N)c(Cl)c1C (stereo not shown)
Rel: =
pEC50: 6.22

Compound: O=C1Nc2ccc(Cl)cc2[C@@](C#CC2CC2)(C(F)(F)F)O1 [Efavirenz, efavirenz, reference compound]
Rel: =
pEC50: 8.30

Compound: N#Cc1ccc(Nc2nccc(C(C#N)c3ccc(C#N)cc3Br)n2)cc1 (stereo not shown)
Rel: =
pEC50: 5.64

Compound: Cc1cc(C(C#N)c2ccnc(Nc3ccc(C#N)cc3)n2)ccc1C#N (stereo not shown)
Rel: <
pEC50: 4.79

Compound: N#Cc1ccc(Nc2nccc(C(C#N)c3ccc(C#N)cc3)n2)cc1 (stereo not shown)
Rel: <
pEC50: 4.49

Compound: Cc1cc(C#N)cc(C)c1Oc1nc(Nc2ccc(C#N)cc2)nc(N)c1Br [Etravirine, etravirine, reference compound]
Rel: =
pEC50: 8.10

Compound: Cc1ccnc2c1NC(=O)c1cccnc1N2C1CC1 [Nevirapine, nevirapine, reference compound]
Rel: =
pEC50: 6.70

Compound: Cc1c(C(C#N)c2ccnc(Nc3ccc(C#N)cc3)n2)ccc(C#N)c1Cl (stereo not shown)
Rel: <
pEC50: 5.21

Compound: Cc1cc(C#N)ccc1C(C#N)c1ccnc(Nc2ccc(C#N)cc2)n1 (stereo not shown)
Rel: =
pEC50: 5.52

Compound: COc1cc(C(C#N)c2ccnc(Nc3ccc(C#N)cc3)n2)ccc1C#N (stereo not shown)
Rel: ≤
pEC50: 4.25

Compound: N#Cc1ccc(Nc2nccc(C(C#N)c3ccc(C#N)cc3Cl)n2)cc1 (stereo not shown)
Rel: =
pEC50: 5.66

###

tested on: HIV-1 L100I mutant strain; assay: Anti-HIV assay against L100I mutant strain in MT-4 cells; format: cell-based; details: Human immunodeficiency virus 1, MT4, read-out: EC50 L100I
// EC50 lookup, one value per entry
Reported property: EC50

Compound: O=C1Nc2ccc(Cl)cc2[C@@](C#CC2CC2)(C(F)(F)F)O1 [Efavirenz, efavirenz, reference compound]
Target under test: HIV-1 L100I mutant strain
Result: 0.04 µM
//
Compound: Cc1cc(C#N)ccc1C(C#N)c1ccnc(Nc2ccc(C#N)cc2)n1 (stereo not shown) [Compound A3]
Target under test: HIV-1 L100I mutant strain
Result: 5.03 µM
//
Compound: Cc1cnc(Nc2ccc(C#N)cc2)nc1C(C#N)c1ccc(C#N)cc1 (stereo not shown) [Compound B1]
Target under test: HIV-1 L100I mutant strain
Result: 8.03 µM
//
Compound: Cc1cc(C#N)cc(C)c1Oc1nc(Nc2ccc(C#N)cc2)nc(N)c1Br [Etravirine, etravirine, reference compound]
Target under test: HIV-1 L100I mutant strain
Result: 0.008 µM

###

tested on: HIV-1 L100I mutant strain; test: Anti-HIV assay against L100I mutant strain in MT-4 cells; type: cell-based; conditions: Human immunodeficiency virus 1, MT4, read-out: EC50 L100I
Reported property: EC50

Compound: Cc1cc(C#N)c(Br)cc1C(C#N)c1ccnc(Nc2ccc(C#N)cc2)n1 (stereo not shown) [Compound A12]
Reported property: EC50
Result: > 13.2 µM
//
Compound: N#Cc1ccc(Nc2nccc(C(C#N)c3ccc(C#N)cc3Cl)n2)cc1 (stereo not shown) [Compound A8]
Reported property: EC50
Result: ≥ 2.37 µM
//
Compound: N#Cc1ccc(Nc2nccc(C(C#N)c3ccc(C#N)cc3Br)n2)cc1 (stereo not shown) [Compound A9]
Reported property: EC50
Result: > 3.35 µM
//
Compound: COc1cc(C(C#N)c2ccnc(Nc3ccc(C#N)cc3)n2)ccc1C#N (stereo not shown) [Compound A4]
Reported property: EC50
Result: ≥ 61.4 µM
